assay: Water solubility of the active agent; format: physicochemical; details: in water; read-out: Wasserlöslichkeit
RECORDED METRIC: solubility (mg/mL)
Answer in mg/mL, number only, no unit symbol.

Request the reported solubility associated with CC(=O)Nc1ccc(O)cc1
14
